// data source = patent US20250281419A1

# Test system: HeLa cells
# testDescription: CFTR protein expression assay in HeLa cells (LNPs of Example 2, immunofluorescence)
# Assay type: cell-based, Human
# setupConditions: LNP IL1:Lipid Amine:DSPC:Chol:PL1 with CFTR mRNA, compared to buffer (PBS) control, 5 h transfection, 24 h incubation, N=4 wells
# reported Average fold-change in CFTR signal intensity per cell ± standard deviation; entries follow
readoutLabel: Average fold-change in CFTR signal intensity per cell ± standard deviation (fold-change)

compound: CC[C@H](CC[C@@H](C)[C@H]1CC[C@H]2[C@@H]3CC=C4C[C@@H](OC(=O)NCC(C)(C)N(C)C)CC[C@]4(C)[C@H]3CC[C@]12C)C(C)C
experimentalTarget: HeLa cells
unitAnnotation: fold-change
number: 4.4
//
compound: CC[C@H](CC[C@@H](C)[C@H]1CC[C@H]2[C@@H]3CC=C4C[C@@H](OC(=O)NCCCCN(C)C)CC[C@]4(C)[C@H]3CC[C@]12C)C(C)C
experimentalTarget: HeLa cells
unitAnnotation: fold-change
number: 4.6
//
compound: CC[C@H](CC[C@@H](C)[C@H]1CC[C@H]2[C@@H]3CC=C4C[C@@H](OC(=O)NCCN(CCO)CCO)CC[C@]4(C)[C@H]3CC[C@]12C)C(C)C
experimentalTarget: HeLa cells
unitAnnotation: fold-change
number: 4.4
//
compound: CC[C@H](CC[C@@H](C)[C@H]1CC[C@H]2[C@@H]3CC=C4C[C@@H](OC(=O)NCCOCCN(C)C)CC[C@]4(C)[C@H]3CC[C@]12C)C(C)C
experimentalTarget: HeLa cells
unitAnnotation: fold-change
number: 1.1
//
compound: CC(C)CCC[C@@H](C)[C@H]1CC[C@H]2[C@@H]3CC=C4C[C@@H](OC(=O)CCC(=O)N5CCN(C)CCN(C)CC5)CC[C@]4(C)[C@H]3CC[C@]12C
experimentalTarget: HeLa cells
unitAnnotation: fold-change
number: 2.3
//
compound: CC[C@H](CC[C@@H](C)[C@H]1CC[C@H]2[C@@H]3CC=C4C[C@@H](OC(=O)NCC5(N(C)C)CC5)CC[C@]4(C)[C@H]3CC[C@]12C)C(C)C
experimentalTarget: HeLa cells
unitAnnotation: fold-change
number: 1.5
//
compound: CC[C@H](CC[C@@H](C)[C@H]1CC[C@H]2[C@@H]3CC=C4C[C@@H](OC(=O)NCCCN(C)C)CC[C@]4(C)[C@H]3CC[C@]12C)C(C)C
experimentalTarget: HeLa cells
unitAnnotation: fold-change
number: 4.7
//
compound: CC[C@H](CC[C@@H](C)[C@H]1CC[C@H]2[C@@H]3CC=C4C[C@@H](OC(=O)NCC(C)(C)N)CC[C@]4(C)[C@H]3CC[C@]12C)C(C)C.Cl
experimentalTarget: HeLa cells
unitAnnotation: fold-change
number: 4.9
